Each recorded value in this set is attributed to patent US20090286785A1.

Collected pIC50 values appear next to each entry.
Test system: HCT116 cells
Assay: HCT116 cytotoxic activity assay (Alamar Blue, 72 h)
Conditions: Homo sapiens, HCT-116, 72 h, read-out: IC50 in the HCT116 cytotoxic activity assay
pIC50: −log10 of the molar value.

>  <COMPOUND_STRUCTURE>
Nc1nc(Nc2ccc(Oc3ccnc(C(F)(F)F)c3)cc2)cc(-c2ccc3[nH]cc(CN4CCOCC4)c3c2)n1

>  <pIC50>
< 6.30

$$$$
>  <COMPOUND_STRUCTURE>
Nc1nc(Nc2ccc(Oc3ccnc(C(F)(F)F)c3)cc2)cc(-c2ccc3[nH]ccc3c2)n1

>  <pIC50>
≥ 6.30

$$$$
